Value source: patent US20240270722A1

Molecular target: human recombinant PLK4 (Homo sapiens)
Construct: purchased ThermoFisher 4PV6396
Sequence (O00444 whole entry): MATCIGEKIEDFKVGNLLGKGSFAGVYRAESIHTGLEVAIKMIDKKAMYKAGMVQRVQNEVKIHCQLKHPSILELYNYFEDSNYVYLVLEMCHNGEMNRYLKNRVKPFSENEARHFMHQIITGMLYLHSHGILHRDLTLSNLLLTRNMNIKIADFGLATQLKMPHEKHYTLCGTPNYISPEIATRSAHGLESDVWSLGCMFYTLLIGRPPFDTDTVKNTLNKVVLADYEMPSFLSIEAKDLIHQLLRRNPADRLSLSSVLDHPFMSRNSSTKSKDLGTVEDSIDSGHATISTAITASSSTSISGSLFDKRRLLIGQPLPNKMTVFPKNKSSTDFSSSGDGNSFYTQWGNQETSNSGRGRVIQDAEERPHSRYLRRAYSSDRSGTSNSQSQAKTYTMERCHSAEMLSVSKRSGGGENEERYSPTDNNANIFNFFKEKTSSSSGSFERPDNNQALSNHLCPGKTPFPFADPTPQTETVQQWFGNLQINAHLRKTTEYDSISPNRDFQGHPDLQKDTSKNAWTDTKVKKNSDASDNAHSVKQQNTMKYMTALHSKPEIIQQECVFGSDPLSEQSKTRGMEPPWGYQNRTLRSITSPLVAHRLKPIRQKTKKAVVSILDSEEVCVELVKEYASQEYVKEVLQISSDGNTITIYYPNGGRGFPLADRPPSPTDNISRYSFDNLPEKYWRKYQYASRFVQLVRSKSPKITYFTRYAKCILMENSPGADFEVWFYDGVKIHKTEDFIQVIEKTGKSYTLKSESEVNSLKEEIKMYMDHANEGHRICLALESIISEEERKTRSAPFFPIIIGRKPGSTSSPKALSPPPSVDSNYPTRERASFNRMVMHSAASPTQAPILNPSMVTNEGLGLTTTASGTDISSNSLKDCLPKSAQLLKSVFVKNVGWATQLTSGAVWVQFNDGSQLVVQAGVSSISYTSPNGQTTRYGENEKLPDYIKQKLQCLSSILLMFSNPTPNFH
Assay: PLK4 Biochemical Assay (ADP-Glo)
Measurement Label: pIC50
Please keep in mind that pIC50 is minus log10 of the molar concentration; only the number is needed.

Query block: Please give the measured pIC50 for this compound: COc1ccc2c(c1)[C@]1(C[C@H]1c1ccc3c(Nc4ncc(P(C)(C)=O)cc4OC)n[nH]c3c1)C(=O)N2
Result block: 8.21

====

Molecular target: human recombinant Aurora A (Homo sapiens)
Construct: purchased ThermoFisher PR5935A
Sequence (O14965 whole entry): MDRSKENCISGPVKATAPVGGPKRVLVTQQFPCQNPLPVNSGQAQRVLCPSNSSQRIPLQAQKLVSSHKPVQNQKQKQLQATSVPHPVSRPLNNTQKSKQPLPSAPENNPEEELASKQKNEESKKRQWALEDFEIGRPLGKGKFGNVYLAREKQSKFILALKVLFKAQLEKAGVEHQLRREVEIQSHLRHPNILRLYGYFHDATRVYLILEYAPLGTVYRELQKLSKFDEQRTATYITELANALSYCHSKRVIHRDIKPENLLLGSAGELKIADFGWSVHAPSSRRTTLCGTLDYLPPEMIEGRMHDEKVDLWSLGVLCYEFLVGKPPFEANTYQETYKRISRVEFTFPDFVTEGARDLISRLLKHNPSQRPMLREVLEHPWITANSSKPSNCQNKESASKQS
Assay: Aurora A Kinase Biochemical Assay (ADP-Glo)
Conditions: selectivity ratio Aurora A vs PLK4
Measurement Label: [Aurora A IC50 (nM)]/[PLK4 IC50 (nM)]
Give the figure by itself; no unit, no explanation.

Query block: Please give the measured [Aurora A IC50 (nM)]/[PLK4 IC50 (nM)] for this compound: COc1ccc2c(c1)[C@]1(C[C@H]1c1ccc3c(Nc4ncnc(N5CCOCC5)c4OC(F)F)n[nH]c3c1)C(=O)N2
Result block: 50000

Query block: Please give the measured [Aurora A IC50 (nM)]/[PLK4 IC50 (nM)] for this compound: COc1cnc(C)nc1Nc1n[nH]c2cc([C@@H]3C[C@@]34C(=O)Nc3ccc(OC(F)(F)F)cc34)ccc12
Result block: 70

Query block: Please give the measured [Aurora A IC50 (nM)]/[PLK4 IC50 (nM)] for this compound: COc1cnc(C)nc1Nc1n[nH]c2cc([C@@H]3C[C@@]34C(=O)Nc3ccc(C(F)(F)F)cc34)ccc12
Result block: 62

Query block: Please give the measured [Aurora A IC50 (nM)]/[PLK4 IC50 (nM)] for this compound: COc1cnc(C)nc1Nc1n[nH]c2cc([C@@H]3C[C@]34C(=O)Nc3ccc(OC(F)(F)F)cc34)ccc12
Result block: 7.4

Query block: Please give the measured [Aurora A IC50 (nM)]/[PLK4 IC50 (nM)] for this compound: COc1ccc2c(c1)[C@]1(C[C@H]1c1ccc3c(Nc4nccc5c4OC[C@H]5CO)n[nH]c3c1)C(=O)N2 (single isomer, unassigned)
Result block: 893.3126

Query block: Please give the measured [Aurora A IC50 (nM)]/[PLK4 IC50 (nM)] for this compound: COc1ccc2c(c1)[C@]1(C[C@H]1c1ccc3c(Nc4ncc(P(C)(C)=O)cc4OC)n[nH]c3c1)C(=O)N2
Result block: 1884.6028

Query block: Please give the measured [Aurora A IC50 (nM)]/[PLK4 IC50 (nM)] for this compound: COc1ccc2c(c1)[C@]1(C[C@H]1c1ccc3c(Nc4nccc5c4OC[C@@H]5CO)n[nH]c3c1)C(=O)N2 (single isomer, unassigned)
Result block: 355.9465

Query block: Please give the measured [Aurora A IC50 (nM)]/[PLK4 IC50 (nM)] for this compound: COc1ccc2c(c1)[C@]1(C[C@H]1c1ccc3c(Nc4nn(C)cc4OC)n[nH]c3c1)C(=O)N2.O=C(O)C(F)(F)F
Result block: 210.5378
